System: MS2 coat protein
ASSAY_DETAILS: apparent KD of MS2 coat protein; designed switch direction (-1 OFF switch, 1 ON switch): 1; higher = weaker reporter binding
EXPERIMENTAL_CONTEXT: input ligand: none
// not satisfied strictly below 40 nM in apparent KD of MS2 coat protein; satisfied otherwise

As a guide, the following entries are already answered.
UUGAUGAACUGAGGAUAUCGAGUCGUCUGAUUAUACAUGAGGAUCACCCAUGUGGGUUGUGGUAUCGAGAAGGCAGAUUACUUA [JR_SSNG2_Sub032] (Eterna round: R96, puzzle: Same State NG 2)    satisfied
AGCUAUUACGAAGGAUAUAGUAACAUGAGGAUCACCCAUGUUUACAUGAUUAAUUGUGAUCACGUCUAGAAGGUUGUACUAACA [SameState NG2 #34] (Eterna round: R96, puzzle: Same State NG 2)    not satisfied
UAUCCAUAGAUAGGAUAUUAGAGAACAUGAGGAUCACCCAUGUUUGGCUUGGUUUUAAGCUAAUCUAAGAAGGAUCUUGAUGAA [SameState NG2 #9] (Eterna round: R96, puzzle: Same State NG 2)    not satisfied
GCUCGGCUGAUGGCCCACAUGAGGAUCACCCAUGUGACUGGGCAGGAUAUCUAGAUUCAGGAUGUAGAGAAGGGCCUGCCGAGC [SameState NG3 #40] (Eterna round: R96, puzzle: Same State NG 3)    satisfied

Could you verify whether the entry UGAACCGUCACAGGAUAUCAUGCGAAAAUUGCGUGAGAAGGGUGGAUGUUGUGCUCAAAGUUCUACAUGAGGAUCACCCAUGUU [SameState NG1 #44] (Eterna round: R96, puzzle: Same State NG 1) shows apparent KD of MS2 coat protein of no less than 40 nM?
satisfied
